- PROCEDURE SUMMARY: EGF10027 steady-state lapatinib concentrations in patient plasma and tumor
- Format: in vivo, human
- SETUP CONDITIONS: female, human, plasma, oral, 1000 mg, patients, median (range), 1000 mg QD (n = 5), steady state; read-out: Plasma Cmin

{"columns": ["COMPOUND", "concentration at 24 h"],
 "data": [
  ["CS(=O)(=O)CCNCc1ccc(-c2ccc3ncnc(Nc4ccc(OCc5cccc(F)c5)c(Cl)c4)c3c2)o1 [lapatinib]", "1.54 µM"]
]}

* * *

- PROCEDURE SUMMARY: in vivo
- SETUP CONDITIONS: female, CB-17 SCID, mouse, kidney, oral, 100 mg/kg, Concentration, individual animals 1-3, kidney, 100 mg/kg BID, 48 h

{"columns": ["COMPOUND", "concentration at 48 h (ng/mL)"],
 "data": [
  ["CS(=O)(=O)CCNCc1ccc(-c2ccc3ncnc(Nc4ccc(OCc5cccc(F)c5)c(Cl)c4)c3c2)o1 [lapatinib]", 114]
]}
